B1: TRIM39 (parent)
chain: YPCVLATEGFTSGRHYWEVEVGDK

variants of: B1; experiment: protein stability index of a GFP-peptide fusion (GPS, HEK-293T) (PSI 1-6); higher = more stable; settings: c terminus: a fixed tail appended;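 note: lentivirally expressed fusions sorted by FACS into six bins by GFP to DsRed ratio, PSI derived from sequencing read proportions per bin multiplied by bin number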
This listing pairs variants with measured protein stability index.
The answer should be written as a number, with no unit following it.

G13P 1.74
E18Y 2.71
Y1E 3.65

Determine its reported protein stability index: "V19L"
2.35

Quickly give me recorded protein stability index for "V4S"
1.61

Dear colleague, please send me the reported protein stability index for "P2M" when you can.
1.76

Provide one value: measured protein stability index of "G22M"
1.58
